- Test system: plasma protein
- protocolDetails: Plasma protein binding (equilibrium dialysis), mouse
- testSettings: mouse plasma, 1 μM, 5 h dialysis
endpoint: Plasma Protein binding (PPB) Mouse (%)
Entry rule: numbers only, all in %.

For [2H][C@]1(O)c2nc(-n3c4nc(Nc5ccc(N6CCC7(CCN(C)CC7)CC6)cc5)ncc4c(=O)n3CC=C)ccc2CCC12CC2 [Compound 37b] , what is its reported Plasma Protein binding (PPB) Mouse?
92.46

Which value of Plasma Protein binding (PPB) Mouse has been reported for C=CCn1c(=O)c2cnc(Nc3ccc(N4CCC(N(C)C)CC4)c(C)c3)nc2n1-c1ccc2c(n1)C(C)(O)C1(CC1)C2 (racemic) in the records?
93.51

Plasma Protein binding (PPB) Mouse for [2H][C@@]1(O)c2nc(-n3c4nc(Nc5ccc(N6CCC(N(C)C)CC6)c(C)c5)ncc4c(=O)n3CC=C)ccc2CCC12CC2 [Compound 41b] ?
96.26

GET /values?readout=Plasma Protein binding (PPB) Mouse&item= C=CCn1c(=O)c2cnc(Nc3ccc(N4CCN(C)CC4)cc3)nc2n1-c1ccc2c(n1)C(O)(CC)C1(CC2)CC1 (racemic)
98.86

// Plasma Protein binding (PPB) Mouse lookup, key: C=CCn1c(=O)c2cnc(Nc3ccc(N4CCN(C)CC4)cc3)nc2n1-c1ccc2c(n1)C(O)(C(F)(F)F)C1(CC1)C2 (stereo not shown)
96.87

Can you share its Plasma Protein binding (PPB) Mouse? I mean this compound: C=CCn1c(=O)c2cnc(Nc3ccc(N4CCC5(CCN(C)CC5)CC4)cc3)nc2n1-c1ccc2c(n1)[C@](C)(O)C1(CC2)CC1 (racemic)
98.46

Which value of Plasma Protein binding (PPB) Mouse has been reported for C=CCn1c(=O)c2cnc(Nc3ccc(N4C[C@H]5CN(C)C[C@H]5C4)cc3)nc2n1-c1ccc2c(n1)C(O)(CC)C1(CC1)C2 (stereo partly shown) in the records?
92.29

So what does the record say about Plasma Protein binding (PPB) Mouse for "C=CCn1c(=O)c2cnc(Nc3ccc(N4CC5CC(C4)N5C)cc3)nc2n1-c1ccc2c(n1)[C@@](C)(O)C1(CC2)CC1" ?
97.21

Any idea what Plasma Protein binding (PPB) Mouse was measured for C=CCn1c(=O)c2cnc(Nc3ccc(N4CCN(C)CC4)cc3)nc2n1-c1ccc2c(n1)C(C)(O)C1(CC2)CC1 (stereo not shown) ?
97.2

Reported Plasma Protein binding (PPB) Mouse, compound C=CCn1c(=O)c2cnc(Nc3ccc(N4CCN(C)CC4)cc3)nc2n1-c1ccc2c(n1)[C@H](O)C1(CC2)CC1 (single isomer, unassigned) : ____
87.71

// query Plasma Protein binding (PPB) Mouse value for entry C=CCn1c(=O)c2cnc(Nc3ccc(N4CCC5(CCN(C)CC5)CC4)cc3)nc2n1-c1ccc2c(n1)C(C)(O)C1(CC1)C2 (stereo not shown)
92.17

Find the recorded Plasma Protein binding (PPB) Mouse belonging to C=CCn1c(=O)c2cnc(Nc3ccc(N4CCN(C)CC4)cc3)nc2n1-c1ccc2c(n1)C(C)(O)C1(CC1)C2 (stereo not shown) and report it.
87.75

Could you tell me which Plasma Protein binding (PPB) Mouse is on file for [2H][C@]1(O)c2nc(-n3c4nc(Nc5ccc(N6CCC7(CCN(C)CC7)CC6)c(C)c5)ncc4c(=O)n3CC=C)ccc2CCC12CC2 [Compound 61b] ?
98.46
